test.system: T1, ZFP SBS#683 (synthetic)
T1 chain: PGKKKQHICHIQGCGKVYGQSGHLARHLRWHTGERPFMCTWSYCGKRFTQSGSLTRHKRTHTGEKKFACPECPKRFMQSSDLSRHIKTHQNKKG
protocol: EMSA
setup.conditions: tags: MBP fusion
readout.label: Kd (nM)
Number in nM, nothing else.

QUERY: Data request, read-out Kd, for GCTGCAGGAG (dsDNA) DNA 1: GCTGCAGGAG DNA 2: CTCCTGCAGC
RESULT: 500
